So I've got a bunch of sequences here, and I need their switch fluorescence ratio values.
test system: ATP; assay: switch fluorescence ratio, 500 uM ATP over buffer (Cy3 cluster intensity, sum of 5 cycles each) (fold (ratio)); higher = stronger signal-on switching upon ATP binding; sequences stand for … in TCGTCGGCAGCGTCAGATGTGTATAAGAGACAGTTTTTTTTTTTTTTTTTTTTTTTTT…TC; conditions: aptamer strand: ATP DNA aptamer (quencher-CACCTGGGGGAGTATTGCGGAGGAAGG + anchor), 100 nM annealed; ATP concentration: 500 uM;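 also: ATP exposure 15 min at 22 °C before imaging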
Give bare numbers.

In the examples that follow, each entry is paired with its recorded switch fluorescence ratio.
- ordered_residues: "TTGGCACAGT"
  switch fluorescence ratio: 1.01
- ordered_residues: "TTGTTTTGTA"
  switch fluorescence ratio: 0.992
- ordered_residues: "CCTCGTAGGT"
  switch fluorescence ratio: 1.07
- ordered_residues: "ATTGGCGTGC"
  switch fluorescence ratio: 0.987
- ordered_residues: "GCGTTTCGGA"
  switch fluorescence ratio: 1

For every item in the list below, what is its measured switch fluorescence ratio?
1. TTCGGTCGTA
2. TAGGCGGGGA
3. GATTCAGGAA
4. CCACTGGGTA
5. TGGTGAAAGT

Result:
1: 1.01; 2: 1.07; 3: 1; 4: 1.05; 5: 0.982

* * *

tested on: ATP; test: switch fluorescence ratio, 500 uM ATP over buffer (Cy3 cluster intensity, sum of 5 cycles each) (fold (ratio)); higher = stronger signal-on switching upon ATP binding; sequences stand for … in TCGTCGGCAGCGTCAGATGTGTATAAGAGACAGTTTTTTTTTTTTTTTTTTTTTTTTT…TC; settings: aptamer strand: ATP DNA aptamer (quencher-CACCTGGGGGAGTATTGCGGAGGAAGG + anchor), 100 nM annealed; ATP concentration: 500 uM;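 also: ATP exposure 15 min at 22 °C before imaging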
recorded_metric: switch fluorescence ratio
Give bare numbers.

- ordered_residues: "GACTCAGAGG"
  endpoint_result: 1.03

# return switch fluorescence ratio for each item in the list
1. AAGGTCTGAG
2. TTGGGAAGTT

Result:
1.02
1.02

Below are 2 sequences. Give each one its switch fluorescence ratio.
1. ATTTTGTCCT
2. GTAGGGAAAG

Result:
1: 1.08; 2: 1.01

Hi, could you look up switch fluorescence ratio for each item in my list?
1. TCTGGTTGTA
2. TTGAGCAGCT
3. GGGAAATTTG
4. AGTGAGGCTC
5. GAACTCGGCT

Result:
1. 0.995
2. 1.08
3. 0.991
4. 0.994
5. 0.959

Below is a list of sequences. For each, state its recorded switch fluorescence ratio.
1. TGAATTTTGT
2. AATCGGTCTG
3. CGCTTTCTTT
4. TCGTGGGACT
5. CCACTGTTGG

Result:
[0.978, 1.03, 1.03, 1.07, 0.992]

* * *

tested on: ATP; test: switch fluorescence ratio, 500 uM ATP over buffer (Cy3 cluster intensity, sum of 5 cycles each) (fold (ratio)); higher = stronger signal-on switching upon ATP binding; sequences stand for … in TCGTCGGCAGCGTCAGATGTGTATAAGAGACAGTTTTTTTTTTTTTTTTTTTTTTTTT…TC; conditions: aptamer strand: ATP DNA aptamer (quencher-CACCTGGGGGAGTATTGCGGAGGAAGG + anchor), 100 nM annealed; ATP concentration: 500 uM;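 also: ATP exposure 15 min at 22 °C before imaging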
recorded_metric: switch fluorescence ratio
Answers are plain numbers.

Give measured switch fluorescence ratio for every item shown.
1. GATGATTGGT
2. CACGTCTAGG
3. GTTGTGTTTT
4. TTTTCGGTAG
5. ACTAGTCAAA
6. GGCGCGGGGA
7. TTTCAATCTT

Result:
1. 0.998
2. 1.05
3. 1.01
4. 0.989
5. 1.02
6. 1.02
7. 1.36

Could I get switch fluorescence ratio for every one of these entries?
1. TTAGATTTAA
2. GAGGGGTTCT
3. TCCCTTGGTT

Result:
1: 0.998; 2: 0.984; 3: 1.05

* * *

tested on: ATP; assay: switch fluorescence ratio, 500 uM ATP over buffer (Cy3 cluster intensity, sum of 5 cycles each) (fold (ratio)); higher = stronger signal-on switching upon ATP binding; sequences stand for … in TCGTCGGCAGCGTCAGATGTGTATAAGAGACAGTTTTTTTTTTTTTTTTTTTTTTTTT…TC; conditions: aptamer strand: ATP DNA aptamer (quencher-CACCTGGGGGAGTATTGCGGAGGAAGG + anchor), 100 nM annealed; ATP concentration: 500 uM;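 also: ATP exposure 15 min at 22 °C before imaging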
recorded_metric: switch fluorescence ratio
One number for each entry.

# annotated cases, reported switch fluorescence ratio shown
- ordered_residues: "TTTCGGTCGG"
  switch fluorescence ratio: 1.04
- ordered_residues: "ACTAGTGGTC"
  switch fluorescence ratio: 0.992
- ordered_residues: "TTTAAATTTG"
  switch fluorescence ratio: 1.02
- ordered_residues: "TCACCAGATT"
  switch fluorescence ratio: 1.02
- ordered_residues: "ATGTAAAGAC"
  switch fluorescence ratio: 1.05
- ordered_residues: "TTCTTTGGAT"
  switch fluorescence ratio: 1.03
- ordered_residues: "TAGTTAGGCA"
  switch fluorescence ratio: 0.982
- ordered_residues: "ATTGTCGTGA"
  switch fluorescence ratio: 0.991

For each of the items listed, what is its switch fluorescence ratio?
1. CCAAGTGAC
2. CCGTGTGGCT

Result:
1: 1.26; 2: 1.03

Report switch fluorescence ratio for each item below.
1. CTGTCATTTG
2. AGGGACGAGT
3. TACTACAGGG
4. CTGCCAATGG
5. AGAGGGTGGG
6. TTGGTGTCAG

Result:
0.985
1.07
1.11
1.99
0.994
1.02

Dear reader, for each entry below, please note its switch fluorescence ratio.
1. TATTGGTGGG
2. GGGAATGGTC

Result:
1. 0.966
2. 1.01

* * *

test system: ATP; assay: switch fluorescence ratio, 500 uM ATP over buffer (Cy3 cluster intensity, sum of 5 cycles each) (fold (ratio)); higher = stronger signal-on switching upon ATP binding; sequences stand for … in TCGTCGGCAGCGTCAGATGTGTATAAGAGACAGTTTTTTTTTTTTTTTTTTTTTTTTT…TC; conditions: aptamer strand: ATP DNA aptamer (quencher-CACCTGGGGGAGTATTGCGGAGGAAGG + anchor), 100 nM annealed; ATP concentration: 500 uM;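 also: ATP exposure 15 min at 22 °C before imaging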
recorded_metric: switch fluorescence ratio
Numbers only.

Field: example entries. Status: answers known.
- ordered_residues: "ATGTCAAGGC"
  experimental_system: "ATP"
  switch fluorescence ratio: 1.05
- ordered_residues: "AGAGTTATTG"
  experimental_system: "ATP"
  switch fluorescence ratio: 0.998
- ordered_residues: "TCCGTGCAAG"
  experimental_system: "ATP"
  switch fluorescence ratio: 3.03

Fill in switch fluorescence ratio for each of the 3 sequences listed.
1. CCGAGTTGTG
2. ATGGCCGGCC
3. GGGTGGAGGG

Result:
1: 1.05; 2: 1.01; 3: 0.973

Give measured switch fluorescence ratio for every item shown.
1. GATGGGGTGG
2. GAGAAATTGG

Result:
[1, 1]

Please report switch fluorescence ratio for every entry that follows.
1. TATTCGATTC
2. CTGAGGGGGG
3. CATTTAATGG
4. TGATTCCGCT
5. TAGTTTTAAA

Result:
1: 1.04; 2: 0.985; 3: 0.997; 4: 1.41; 5: 1.02

* * *

test system: ATP; experiment: switch fluorescence ratio, 500 uM ATP over buffer (Cy3 cluster intensity, sum of 5 cycles each) (fold (ratio)); higher = stronger signal-on switching upon ATP binding; sequences stand for … in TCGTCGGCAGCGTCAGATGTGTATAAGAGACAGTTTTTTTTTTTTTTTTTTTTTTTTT…TC; settings: aptamer strand: ATP DNA aptamer (quencher-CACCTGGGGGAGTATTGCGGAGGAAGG + anchor), 100 nM annealed; ATP concentration: 500 uM;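 also: ATP exposure 15 min at 22 °C before imaging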
recorded_metric: switch fluorescence ratio
One number for each entry.

- ordered_residues: "GATTCCAGTT"
  switch fluorescence ratio: 1.01
- ordered_residues: "GAGTACAAAG"
  switch fluorescence ratio: 1.02
- ordered_residues: "GCTCGGGGTG"
  switch fluorescence ratio: 0.986

Please look at the items below and tell me switch fluorescence ratio for each one, in order.
1. CGGTCAACAC
2. AAAATGGAAA
3. TAGCAGGGGG
4. TCAACCGGGG
5. GAGTCTTTGG

Result:
1.66
1.03
1.03
1.08
0.973

Could I get switch fluorescence ratio for every one of these entries?
1. ATACAAGTAT
2. GGTTCAGCGG

Result:
1: 0.995; 2: 0.959

* * *

I'd appreciate it if you could supply switch fluorescence ratio values for the items below.
tested on: ATP; test: switch fluorescence ratio, 500 uM ATP over buffer (Cy3 cluster intensity, sum of 5 cycles each) (fold (ratio)); higher = stronger signal-on switching upon ATP binding; sequences stand for … in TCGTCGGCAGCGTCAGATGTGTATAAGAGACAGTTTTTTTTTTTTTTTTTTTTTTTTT…TC; conditions: aptamer strand: ATP DNA aptamer (quencher-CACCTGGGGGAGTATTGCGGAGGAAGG + anchor), 100 nM annealed; ATP concentration: 500 uM;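 also: ATP exposure 15 min at 22 °C before imaging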
One number for each entry.

Known results for sequences:
- ordered_residues: "GGCTCATTGG"
  switch fluorescence ratio: 0.969
- ordered_residues: "GATTGATGGT"
  switch fluorescence ratio: 0.992
- ordered_residues: "GCGAGGTGCA"
  switch fluorescence ratio: 1.03
- ordered_residues: "CACACTGGCA"
  switch fluorescence ratio: 0.996

Go through the list and state switch fluorescence ratio for each entry.
1. CTTACAGCTA
2. GTTTTAAAGT
3. GAGGATGATC
4. ATCGCGGATT
5. AAGGGCCAGC
6. TACAGGTTGG
7. AACTGGGGGA

Result:
1. 1.1
2. 1.02
3. 1.01
4. 0.994
5. 0.99
6. 1.03
7. 1.06
